B1: S100A14 (parent)
chain: KIANLGSCNDSKLEFRSFWELIGE

Variants of: B1
method: protein stability index of a GFP-peptide fusion (GPS, HEK-293T) (PSI 1-6); higher = more stable;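 further: lentivirally expressed fusions sorted by FACS into six bins by GFP to DsRed ratio, PSI derived from sequencing read proportions per bin multiplied by bin number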
test-parameters: c terminus: a fixed tail appended
metric: protein stability index
Answers are plain numbers.

Record excerpt, results attached:
{"columns": ["changes", "protein stability index"],
 "data": [
  ["E24Y", 1.84],
  ["L13V", 1.83],
  ["L13M", 2.03]
]}

Could I get protein stability index for every one of these entries?
1. E20V
2. S11I
3. E24K
4. E14V

output:
[1.73, 1.75, 2.06, 1.6]

Hi there! I need protein stability index for each item below, if you can.
1. S7K
2. K1R

output:
1.44
1.59
